# IC50 per entry
Test: Displacement of dansyl-polymyxin from LPS
Type: binding, P. aeruginosa
Details: read-out: LPS binding affinity: peptide concentration to displace 50% of dansyl-polymyxin B from LPS; Tables 1, 4, 7
Where a SMILES comes first, the peptide text is derived from it. [ ]: non-standard residue; d: D form. Orn = NCCC[C@H](N)C(=O)O

compound: CC(C)C[C@@H]1NC(=O)[C@H](CCCCN)NC(=O)[C@H](CC(C)C)NC(=O)[C@@H]2CCCN2C(=O)[C@@H](Cc2ccccc2)NC(=O)[C@H](CC(C)C)NC(=O)[C@@H](CCCCN)NC(=O)[C@H](CC(C)C)NC(=O)[C@H](CCCCN)NC(=O)[C@H](CC(C)C)NC(=O)[C@@H]2CCCN2C(=O)[C@@H](Cc2ccccc2)NC(=O)[C@H](CC(C)C)NC(=O)[C@H](CCCCN)NC1=O [Y2/F2 V3/L3]
IC50, µM: 25

compound: CC(C)C[C@@H]1NC(=O)[C@H](CCCCN)NC(=O)[C@H](C(C)C)NC(=O)[C@@H]2CCCN2C(=O)[C@H](Cc2ccc(O)cc2)NC(=O)[C@H](CC(C)C)NC(=O)[C@H](CCCCN)NC(=O)[C@H](C(C)C)NC(=O)[C@H](CCCCN)NC(=O)[C@H](CC(C)C)NC(=O)[C@@H]2CCCN2C(=O)[C@@H](Cc2ccc(O)cc2)NC(=O)[C@H](C(C)C)NC(=O)[C@H](CCCCN)NC1=O [GS14Y13]
IC50, µM: 24

compound: CC(C)C[C@@H]1NC(=O)[C@H](CCCCN)NC(=O)[C@H](C(C)C)NC(=O)[C@@H]2CCCN2C(=O)[C@@H](Cc2ccc(O)cc2)NC(=O)[C@H](CC(C)C)NC(=O)[C@H](CCCCN)NC(=O)[C@H](C(C)C)NC(=O)[C@H](CCCCN)NC(=O)[C@H](CC(C)C)NC(=O)[C@H]2CCCN2C(=O)[C@@H](Cc2ccc(O)cc2)NC(=O)[C@H](C(C)C)NC(=O)[C@H](CCCCN)NC1=O [GS14P7]
IC50, µM: 18

compound: CC(C)C[C@@H]1NC(=O)[C@H](CCCCN)NC(=O)[C@H](C(C)C)NC(=O)[C@@H]2CCCN2C(=O)[C@@H](Cc2ccc(O)cc2)NC(=O)[C@H](CC(C)C)NC(=O)[C@H](CCCCN)NC(=O)[C@H](C(C)C)NC(=O)[C@H](CCCCN)NC(=O)[C@@H](CC(C)C)NC(=O)[C@@H]2CCCN2C(=O)[C@@H](Cc2ccc(O)cc2)NC(=O)[C@H](C(C)C)NC(=O)[C@H](CCCCN)NC1=O [GS14L8]
IC50, µM: 62

compound: CC(C)C[C@@H]1NC(=O)[C@H](C(C)C)NC(=O)[C@H](CC(C)C)NC(=O)[C@@H]2CCCN2C(=O)[C@@H](Cc2ccc(O)cc2)NC(=O)[C@H](C(C)C)NC(=O)[C@H](CC(C)C)NC(=O)[C@H](C(C)C)NC(=O)[C@H](CCCCN)NC(=O)[C@H](CCCCN)NC(=O)[C@@H]2CCCN2C(=O)[C@@H](Cc2ccc(O)cc2)NC(=O)[C@H](CCCCN)NC(=O)[C@H](CCCCN)NC1=O [GS14napol]
IC50, µM: 98

compound: CC(C)C[C@@H]1NC(=O)[C@H](CCCCN)NC(=O)[C@H](C(C)C)NC(=O)[C@H](CCCCN)NC(=O)[C@H](CC(C)C)NC(=O)[C@@H]2CCCN2C(=O)[C@@H](Cc2ccc(O)cc2)NC(=O)[C@H](C(C)C)NC(=O)[C@@H](CCCCN)NC(=O)[C@H](CC(C)C)NC(=O)[C@@H](CCCCN)NC(=O)[C@H](C(C)C)NC(=O)[C@@H]2CCCN2C(=O)[C@@H](Cc2ccc(O)cc2)NC1=O [GS14K2K4]
IC50, µM: 120

compound: C[C@@H]1NC(=O)[C@H](CCCCN)NC(=O)[C@H](C)NC(=O)[C@@H]2CCCN2C(=O)[C@@H](Cc2ccc(O)cc2)NC(=O)[C@H](C)NC(=O)[C@@H](CCCCN)NC(=O)[C@H](C)NC(=O)[C@H](CCCCN)NC(=O)[C@H](C)NC(=O)[C@@H]2CCCN2C(=O)[C@@H](Cc2ccc(O)cc2)NC(=O)[C@H](C)NC(=O)[C@H](CCCCN)NC1=O [V3L3/A6]
IC50, µM: 291

compound: CC(C)C[C@@H]1NC(=O)[C@H](CCCCN)NC(=O)[C@H](C(C)C)NC(=O)[C@H]2CCCN2C(=O)[C@@H](Cc2ccc(O)cc2)NC(=O)[C@H](CC(C)C)NC(=O)[C@H](CCCCN)NC(=O)[C@H](C(C)C)NC(=O)[C@H](CCCCN)NC(=O)[C@H](CC(C)C)NC(=O)[C@@H]2CCCN2C(=O)[C@@H](Cc2ccc(O)cc2)NC(=O)[C@H](C(C)C)NC(=O)[C@H](CCCCN)NC1=O [GS14P14]
IC50, µM: 20

compound: CC(C)C[C@@H]1NC(=O)[C@H](CCCCN)NC(=O)[C@H](C)NC(=O)[C@@H]2CCCN2C(=O)[C@@H](Cc2ccc(O)cc2)NC(=O)[C@H](CC(C)C)NC(=O)[C@H](CCCCN)NC(=O)[C@H](C)NC(=O)[C@H](CCCCN)NC(=O)[C@H](CC(C)C)NC(=O)[C@@H]2CCCN2C(=O)[C@@H](Cc2ccc(O)cc2)NC(=O)[C@H](C)NC(=O)[C@@H](CCCCN)NC1=O [V3/A3]
IC50, µM: 163

compound: CC(C)C[C@@H]1NC(=O)[C@H](CCCCN)NC(=O)[C@H](C(C)C)NC(=O)[C@H](CCCCN)NC(=O)[C@H](CC(C)C)NC(=O)[C@@H]2CCCN2C(=O)[C@@H](Cc2ccc(O)cc2)NC(=O)[C@H](C(C)C)NC(=O)[C@H](CCCCN)NC(=O)[C@H](CC(C)C)NC(=O)[C@@H](CCCCN)NC(=O)[C@H](C(C)C)NC(=O)[C@@H]2CCCN2C(=O)[C@@H](Cc2ccc(O)cc2)NC1=O [GS14K2]
IC50, µM: 50

compound: CC(C)C[C@@H]1NC(=O)[C@H](CCCN)NC(=O)[C@H](C(C)C)NC(=O)[C@@H]2CCCN2C(=O)[C@@H](Cc2ccccc2)NC(=O)[C@H](CC(C)C)NC(=O)[C@H](CCCN)NC(=O)[C@H](C(C)C)NC(=O)[C@@H]2CCCN2C(=O)[C@@H](Cc2ccccc2)NC1=O [GS, cyclo(Val-Orn-Leu-D-Phe-Pro)2, reference compound] (cyclo(V[Orn]L[dF]PV[Orn]L[dF]P))
IC50, µM: 295
